Tested on: Danio rerio embryo (fli1:egfp)
Assay: pericardial area at 72 hpf (image area units (not stated)); higher = larger pericardial area (edema)
Settings: 0.05 µM; exposure: 5-72 hpf
value_kind: pericardial area at 72 hpf

molecule: CC1(C)C(C(=O)OC(C#N)c2cccc(Oc3ccccc3)c2)C1(C)C (stereo not drawn)
readout_number: 14600
//
molecule: CCOC(=O)C(C)OC(=O)c1cc(Oc2ccc(C(F)(F)F)cc2Cl)ccc1[N+](=O)[O-] (stereo not drawn)
readout_number: 13400
//
molecule: C[C@@]1(c2ccc(Oc3ccccc3)cc2)OC(=O)N(Nc2ccccc2)C1=O (racemic)
readout_number: 13400
//
molecule: C#CCN1C(=O)COc2cc(F)c(N3C(=O)C4=C(CCCC4)C3=O)cc21
readout_number: 17000
//
molecule: CO/N=C(/C1=NOCCO1)c1ccccc1Oc1ncnc(Oc2ccccc2Cl)c1F
readout_number: 14300
//
molecule: CCCCCOC(=O)COc1cc(N2C(=O)C3=C(CCCC3)C2=O)c(F)cc1Cl
readout_number: 14500
//
molecule: CCOC(=O)COc1cc(-c2nn(C)c(OC(F)F)c2Cl)c(F)cc1Cl
readout_number: 15700
//
molecule: COC(=O)N(C(=O)N1CO[C@@]2(C(=O)OC)Cc3cc(Cl)ccc3C2=N1)c1ccc(OC(F)(F)F)cc1
readout_number: 14200

* * *

body length at 72 hpf overview
System: Danio rerio embryo (fli1:egfp)
Experiment: body length at 72 hpf (µm); higher = longer body (less growth inhibition)
Conditions: 0.39 µM; exposure: 5-72 hpf
value_kind: body length at 72 hpf

compound: CCOC(=O)COc1cc(-n2ncc(C(F)(F)F)c(C)c2=O)c(F)cc1Cl [Flufenpyr-ethyl]
readout_number: 3080

compound: CCN(Cc1c(F)cccc1Cl)c1c([N+](=O)[O-])cc(C(F)(F)F)cc1[N+](=O)[O-] [Flumetralin]
readout_number: 3010

compound: C#CCN1C(=O)COc2cc(F)c(N3C(=O)C4=C(CCCC4)C3=O)cc21 [Flumioxazin]
readout_number: 2920

compound: CC(C)[C@H](C(=O)O[C@H](C#N)c1cccc(Oc2ccccc2)c1)c1ccc(Cl)cc1 [Esfenvalerate]
readout_number: 3090

compound: N#Cc1c(Cl)c(Cl)c(Cl)c(C#N)c1Cl [Chlorothalonil]
readout_number: 2880

compound: CC(C)Oc1cc(-n2nc(C(C)(C)C)oc2=O)c(Cl)cc1Cl [Oxadiazon]
readout_number: 3060

* * *

Tested on: Danio rerio embryo (fli1:egfp)
Experiment: body length at 72 hpf (µm); higher = longer body (less growth inhibition)
Details: 0.05 µM; exposure: 5-72 hpf
body length at 72 hpf overview
value_kind: body length at 72 hpf

molecular_string: CCCCSP(=O)(SCCCC)SCCCC
value_kind: body length at 72 hpf
readout_number: 2900
--
molecular_string: C=C(C)[C@H]1Cc2c(ccc3c2O[C@@H]2COc4cc(OC)c(OC)cc4[C@@H]2C3=O)O1
value_kind: body length at 72 hpf
readout_number: 3020
--
molecular_string: C#CCOC(=O)[C@@H](C)Oc1ccc(Oc2ncc(Cl)cc2F)cc1
value_kind: body length at 72 hpf
readout_number: 2990
--
molecular_string: CN1CSC(=S)N(C)C1
value_kind: body length at 72 hpf
readout_number: 2860

* * *

Test system: Danio rerio embryo (fli1:egfp)
Test: arterial (dorsal aorta) circulation score at 72 hpf (normalized DA-Max (arbitrary units)); higher = more circulation
Details: 0.195 µM; exposure: 5-72 hpf
value_kind: arterial

molecule: CCCCCOC(=O)COc1cc(N2C(=O)C3=C(CCCC3)C2=O)c(F)cc1Cl
value_kind: arterial
result: 10.3

molecule: CCOC(=O)C(Cl)Cc1cc(-n2nc(C)n(C(F)F)c2=O)c(F)cc1Cl (configuration not stated)
value_kind: arterial
result: 14.4

molecule: CC1(C)C(C=C(Cl)Cl)C1C(=O)OC(C#N)c1ccc(F)c(Oc2ccccc2)c1 (configuration not stated)
value_kind: arterial
result: 16.3

molecule: CC1(C)C(C(=O)OC(C#N)c2cccc(Oc3ccccc3)c2)C1(C)C (configuration not stated)
value_kind: arterial
result: 11.2

molecule: CCOC(=O)C(C)OC(=O)c1cc(Oc2ccc(C(F)(F)F)cc2Cl)ccc1[N+](=O)[O-] (configuration not stated)
value_kind: arterial
result: 8.26

molecule: O=C(O)c1cc(Oc2ccc(C(F)(F)F)cc2Cl)ccc1[N+](=O)[O-]
value_kind: arterial
result: 14.4

molecule: Cc1nn(-c2cc(NS(C)(=O)=O)c(Cl)cc2Cl)c(=O)n1C(F)F
value_kind: arterial
result: 12.6
